# ASSAY SYSTEM: Prostaglandin F (FP) Receptor (Homo sapiens, UniProt P43088)
# Sequence (P43088 whole entry): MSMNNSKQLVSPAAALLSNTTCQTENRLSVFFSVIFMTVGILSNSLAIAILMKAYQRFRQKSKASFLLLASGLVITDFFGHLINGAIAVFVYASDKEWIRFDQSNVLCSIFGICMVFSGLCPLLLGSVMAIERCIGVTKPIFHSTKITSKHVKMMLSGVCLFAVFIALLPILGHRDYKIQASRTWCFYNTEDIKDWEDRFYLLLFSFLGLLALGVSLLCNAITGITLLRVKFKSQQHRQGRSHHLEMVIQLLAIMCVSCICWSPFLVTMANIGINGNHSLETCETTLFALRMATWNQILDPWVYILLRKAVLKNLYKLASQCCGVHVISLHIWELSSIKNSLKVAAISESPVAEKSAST
# MEASUREMENT DESCRIPTION: Ca2+ assay (FLIPR) for the GPCR prostaglandin F (FP) receptor, agonist and antagonist mode
MEASUREMENT KIND: IC50 (nM)

{"STRUCTURE SMILES": "CN1CCC[C@H](NC(=O)Cc2cccc(-c3ccccc3)c2)C(=O)N2C[C@@H](NC(=O)Nc3cccc(N(C)C)c3)C[C@H]2COc2cccc(c2)C1=O", "ASSAY VALUE": 94}
{"STRUCTURE SMILES": "CCCCCCCCCC(=O)N[C@H]1CCCN(C)C(=O)c2cccc(c2)OC[C@@H]2C[C@H](NC(=O)Cc3cccc(Oc4ccccc4)c3)CN2C1=O", "ASSAY VALUE": 5100}
{"STRUCTURE SMILES": "CCCCCCCCCC(=O)N[C@H]1CCCNC(=O)c2cccc(c2)OC[C@@H]2C[C@H](NC(=O)Cc3ccc4ccccc4c3)CN2C1=O", "ASSAY VALUE": 250}
{"STRUCTURE SMILES": "CN1CCC[C@H](NC(=O)CCCCOc2ccccc2)C(=O)N2C[C@@H](NC(=O)Cc3ccc4ccccc4c3)C[C@H]2COc2cccc(c2)C1=O", "ASSAY VALUE": 650}
{"STRUCTURE SMILES": "CN1CCC[C@H](NC(=O)Cc2ccc(-c3ccccc3)cc2)C(=O)N2C[C@@H](NC(=O)Cc3ccc4ccccc4c3)C[C@H]2COc2cccc(c2)C1=O", "ASSAY VALUE": 350}
{"STRUCTURE SMILES": "CN1CCC[C@H](NC(=O)CCCCCc2ccccc2)C(=O)N2C[C@@H](NC(=O)CCCCCOCc3ccccc3)C[C@H]2COc2cccc(c2)C1=O", "ASSAY VALUE": 1700}
{"STRUCTURE SMILES": "CN1CCC[C@H](NC(=O)OCc2ccccc2)C(=O)N2C[C@@H](NC(=O)Cc3ccc4ccccc4c3)C[C@H]2COc2cccc(c2)C1=O", "ASSAY VALUE": 520}
{"STRUCTURE SMILES": "CCCCCCCCCC(=O)N[C@H]1CCCN(C)C(=O)c2cccc(c2)OC[C@@H]2C[C@H](NC(=O)Nc3cccc(N(C)C)c3)CN2C1=O", "ASSAY VALUE": 59}
{"STRUCTURE SMILES": "CN1CCC[C@H](NC(=O)Cc2cccc3ccccc23)C(=O)N2C[C@@H](NC(=O)Cc3ccc4ccccc4c3)C[C@H]2COc2cccc(c2)C1=O", "ASSAY VALUE": 640}

* * *

# MEASUREMENT DESCRIPTION: Metabolic stability assay, rat microsomes (values in parentheses)
# Format: in vitro ADME
# TEST CONTEXT: 60 min, value in parentheses
Values of Metabolic Stability 60 min (rat) [% remain.] greater than or equal to 70 % remain. map to 1 (yes); values below map to 0 (no).

{"STRUCTURE SMILES": "CC(C)CN[C@H]1C[C@H]2COc3cccc(c3)C(=O)N(C)[C@H](C(=O)NCc3ccc4ccccc4c3)COCC(=O)N2C1", "LABEL CLASS": "0 (no)"}
{"STRUCTURE SMILES": "COCCNC(=O)[C@@H]1COCC(=O)N2C[C@@H](N)C[C@H]2COc2cccc(c2)C(=O)N1C", "LABEL CLASS": "1 (yes)"}
{"STRUCTURE SMILES": "CN(C)CCNC(=O)[C@@H]1COCC(=O)N2C[C@@H](NC(=O)Cc3ccc4ccccc4c3)C[C@H]2COc2cccc(c2)C(=O)N1C", "LABEL CLASS": "1 (yes)"}
{"STRUCTURE SMILES": "CN1CCC[C@H](NC(=O)Cc2ccccc2)C(=O)N2C[C@@H](O)C[C@H]2COc2cccc(c2)C1=O", "LABEL CLASS": "1 (yes)"}
{"STRUCTURE SMILES": "CN1CCC[C@H](NCC(C)(C)C)C(=O)N2C[C@@H](Oc3ccccc3)C[C@H]2COc2cccc(c2)C1=O", "LABEL CLASS": "0 (no)"}
